B1: CPEB3 Ribozyme (parent)
chain: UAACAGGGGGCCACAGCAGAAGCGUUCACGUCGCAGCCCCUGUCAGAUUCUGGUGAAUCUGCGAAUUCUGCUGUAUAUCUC

- Variants of: B1
- ASSAY SUMMARY: self-cleavage, relative activity (ratio to wild type); higher = more cleavage; in vitro, sequencing
Output 1.0 for self-cleavage not less than 0.4; output 0.0 otherwise.

MUTANT NAME	LABEL VALUE
U48C A65G	0.0
U58G U76A	1.0
U41A U66G	0.0
A21U U43A	1.0
G7U U48A	0.0
A3G U58C	1.0
G52A U58C	1.0
C38U U80A	1.0
G61A A77G	1.0
A5C	1.0
